# testedOn: T1, extracellular domain of activin receptor type IIB (ActRIIBecd), biotinylated (Homo sapiens (Human), UniProt Q13705 27-117, amino-biotinylated with amine-PEG3-Biotin)
# T1 construct: immobilised on a streptavidin-coated sensor chip; also called biotinylated ActRIIBecd; extracellular domain of ActRIIB
# T1 sequence: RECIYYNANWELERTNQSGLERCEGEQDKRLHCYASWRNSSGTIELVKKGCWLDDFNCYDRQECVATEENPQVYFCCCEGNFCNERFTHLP
# assayName: BIAcore SPR, biotinylated ActRIIBecd on chip; SD ±11.79 nM
valueType: pKd
Interpret pKd as the negative base-10 log of the concentration measured in mol/L.

Exercise: Reported pKd for Recombinant polypeptide of clones 10 + 21 (designed binder) AQAKHKQRKRLKSSCKRHPLYNSKIPKACCVPTELSAISMLYLDENEKVVLKNYQDMVVEGCGCR : what is it?
Solution: 7.56
